Every entry's value here was drawn from patent US10392368B2.

- assay target: JAK1 (Homo sapiens)
- Construct: GST; purchased Life Technologies
- Sequence (P23458 whole entry): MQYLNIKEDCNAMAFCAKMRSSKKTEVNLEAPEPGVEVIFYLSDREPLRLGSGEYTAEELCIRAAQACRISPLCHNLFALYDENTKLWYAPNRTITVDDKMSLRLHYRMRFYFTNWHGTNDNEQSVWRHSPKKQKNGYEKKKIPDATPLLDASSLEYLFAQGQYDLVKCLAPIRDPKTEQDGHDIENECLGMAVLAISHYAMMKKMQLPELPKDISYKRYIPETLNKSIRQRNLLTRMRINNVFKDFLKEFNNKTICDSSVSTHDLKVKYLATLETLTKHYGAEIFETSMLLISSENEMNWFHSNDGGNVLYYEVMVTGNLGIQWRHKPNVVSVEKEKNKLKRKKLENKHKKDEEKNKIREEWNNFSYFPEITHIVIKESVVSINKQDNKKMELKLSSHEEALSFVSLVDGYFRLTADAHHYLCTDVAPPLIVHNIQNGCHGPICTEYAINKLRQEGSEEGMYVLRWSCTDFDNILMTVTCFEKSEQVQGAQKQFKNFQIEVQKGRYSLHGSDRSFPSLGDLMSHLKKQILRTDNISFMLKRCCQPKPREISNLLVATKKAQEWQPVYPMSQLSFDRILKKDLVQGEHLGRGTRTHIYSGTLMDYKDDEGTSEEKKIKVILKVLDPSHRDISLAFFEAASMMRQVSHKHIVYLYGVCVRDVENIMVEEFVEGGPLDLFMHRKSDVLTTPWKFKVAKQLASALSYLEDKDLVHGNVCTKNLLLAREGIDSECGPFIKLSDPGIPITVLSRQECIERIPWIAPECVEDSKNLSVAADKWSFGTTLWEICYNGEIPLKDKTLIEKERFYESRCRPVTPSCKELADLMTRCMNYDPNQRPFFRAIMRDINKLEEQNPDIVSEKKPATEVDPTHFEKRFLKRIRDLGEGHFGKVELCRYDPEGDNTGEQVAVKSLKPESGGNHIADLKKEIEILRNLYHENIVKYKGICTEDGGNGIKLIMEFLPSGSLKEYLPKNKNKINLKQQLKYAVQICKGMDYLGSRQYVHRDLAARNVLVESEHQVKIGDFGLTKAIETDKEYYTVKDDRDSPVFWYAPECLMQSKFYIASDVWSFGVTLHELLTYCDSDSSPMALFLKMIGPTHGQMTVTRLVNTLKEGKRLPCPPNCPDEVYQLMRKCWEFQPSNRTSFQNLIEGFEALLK
- assay name: Biochemical JAK1 kinase assay (LanthaScreen)
- condition info: read-out: JAK 1 (pKi) (converted)

molecular string	Ki
C=CC(=O)N1C[C@@H](Oc2cc(-c3ccc(O)cc3)cc3[nH]ncc23)CC[C@@H]1C	> 100 nM
CN(C)C/C=C/C(=O)N1CC(COc2cc(-c3ccc(O)cc3)cc3[nH]nc(C(F)(F)F)c23)C1	10 to 100 nM
C=CC(=O)N1CC[C@H](Oc2nc(-c3ccc(O)cc3)cc3[nH]ncc23)C1	> 100 nM
C=CC(=O)N1CCC(Oc2cc(-c3ccc(O)c(Cl)c3)nc3[nH]ncc23)CC1	> 100 nM
CN(C)C/C=C/C(=O)N1CC(F)(COc2nc(-c3ccc(O)c(Cl)c3)cc3[nH]ncc23)C1	10 to 100 nM
C=CC(=O)N1CCC(Sc2cc(-c3ccc(O)cc3)cc3[nH]ncc23)CC1	> 100 nM
CN(C)C/C=C/C(=O)N1CC(COc2cc(-c3ccc(O)cc3)cc3[nH]ncc23)C1	> 100 nM
